# Experiment description: HS68 cytotoxicity test (MTS cell viability)
# Format: cell-based
# Condition context: human, HS68 cells (skin fibroblasts), HS68, 100 μg/ml
# Experimental: Skin fibroblast HS68 cells were used. The medium was DMEM high glucose (SH30243.01, HyClone™, Logan, UT, USA) medium containing 10% fetal bovine serum (FBS, Lonza, Valais, Switzerland) medium. […] Cell viability was measured using MTS (CellTiter 96® AQueous One Solution Cell Proliferation Assay, Promega, USA) reagent. […] After the reaction at 37° C. for 60 minutes, absorbance was measured at 490 nm with microplate reader (Molecular Devices, VersaMax ELISA Microplate Reader, USA). […]
Examples of compounds with documented viability at 24 h, 100 µg/mL follow.
Answer format reminder: number followed by unit.

NC(=O)C[C@H](NC(=O)CNC(=O)[C@@H]1CCCN1)C(=O)O [PGN, Pro-Gly-Asn, reference compound] = 130%
CCCOC(=O)[C@H](CC(N)=O)NC(=O)CNC(=O)[C@@H]1CCCN1 [PGN-OPr, PGN(Pro-Gly-Asn)-OPr] = 116%
CN1CCC[C@H]1C(=O)NCC(=O)N[C@@H](CC(N)=O)C(=O)O [Me-PGN] = 104%

Prompt: Quick one: viability at 24 h, 100 µg/mL of CCCCCCCCCCCCCCCC(=O)N1CCC[C@H]1C(=O)NCC(=O)N[C@@H](CC(N)=O)C(=O)O [Pal-PGN] ?
Response: 116%
